The reported numbers originate from patent US9180115B2.

Recorded IC50 for the following molecules
biological target: human Nav1.5 sodium channel (Homo sapiens, UniProt Q14524); construct: host or cells: HEK-293; test: FLIPR membrane potential assay in hNav1.5-HEK293 cells; assay type: cell-based; settings: HEK Nav 1.5 IC50 (μM) (AVG)
Sequence (Q14524 whole entry): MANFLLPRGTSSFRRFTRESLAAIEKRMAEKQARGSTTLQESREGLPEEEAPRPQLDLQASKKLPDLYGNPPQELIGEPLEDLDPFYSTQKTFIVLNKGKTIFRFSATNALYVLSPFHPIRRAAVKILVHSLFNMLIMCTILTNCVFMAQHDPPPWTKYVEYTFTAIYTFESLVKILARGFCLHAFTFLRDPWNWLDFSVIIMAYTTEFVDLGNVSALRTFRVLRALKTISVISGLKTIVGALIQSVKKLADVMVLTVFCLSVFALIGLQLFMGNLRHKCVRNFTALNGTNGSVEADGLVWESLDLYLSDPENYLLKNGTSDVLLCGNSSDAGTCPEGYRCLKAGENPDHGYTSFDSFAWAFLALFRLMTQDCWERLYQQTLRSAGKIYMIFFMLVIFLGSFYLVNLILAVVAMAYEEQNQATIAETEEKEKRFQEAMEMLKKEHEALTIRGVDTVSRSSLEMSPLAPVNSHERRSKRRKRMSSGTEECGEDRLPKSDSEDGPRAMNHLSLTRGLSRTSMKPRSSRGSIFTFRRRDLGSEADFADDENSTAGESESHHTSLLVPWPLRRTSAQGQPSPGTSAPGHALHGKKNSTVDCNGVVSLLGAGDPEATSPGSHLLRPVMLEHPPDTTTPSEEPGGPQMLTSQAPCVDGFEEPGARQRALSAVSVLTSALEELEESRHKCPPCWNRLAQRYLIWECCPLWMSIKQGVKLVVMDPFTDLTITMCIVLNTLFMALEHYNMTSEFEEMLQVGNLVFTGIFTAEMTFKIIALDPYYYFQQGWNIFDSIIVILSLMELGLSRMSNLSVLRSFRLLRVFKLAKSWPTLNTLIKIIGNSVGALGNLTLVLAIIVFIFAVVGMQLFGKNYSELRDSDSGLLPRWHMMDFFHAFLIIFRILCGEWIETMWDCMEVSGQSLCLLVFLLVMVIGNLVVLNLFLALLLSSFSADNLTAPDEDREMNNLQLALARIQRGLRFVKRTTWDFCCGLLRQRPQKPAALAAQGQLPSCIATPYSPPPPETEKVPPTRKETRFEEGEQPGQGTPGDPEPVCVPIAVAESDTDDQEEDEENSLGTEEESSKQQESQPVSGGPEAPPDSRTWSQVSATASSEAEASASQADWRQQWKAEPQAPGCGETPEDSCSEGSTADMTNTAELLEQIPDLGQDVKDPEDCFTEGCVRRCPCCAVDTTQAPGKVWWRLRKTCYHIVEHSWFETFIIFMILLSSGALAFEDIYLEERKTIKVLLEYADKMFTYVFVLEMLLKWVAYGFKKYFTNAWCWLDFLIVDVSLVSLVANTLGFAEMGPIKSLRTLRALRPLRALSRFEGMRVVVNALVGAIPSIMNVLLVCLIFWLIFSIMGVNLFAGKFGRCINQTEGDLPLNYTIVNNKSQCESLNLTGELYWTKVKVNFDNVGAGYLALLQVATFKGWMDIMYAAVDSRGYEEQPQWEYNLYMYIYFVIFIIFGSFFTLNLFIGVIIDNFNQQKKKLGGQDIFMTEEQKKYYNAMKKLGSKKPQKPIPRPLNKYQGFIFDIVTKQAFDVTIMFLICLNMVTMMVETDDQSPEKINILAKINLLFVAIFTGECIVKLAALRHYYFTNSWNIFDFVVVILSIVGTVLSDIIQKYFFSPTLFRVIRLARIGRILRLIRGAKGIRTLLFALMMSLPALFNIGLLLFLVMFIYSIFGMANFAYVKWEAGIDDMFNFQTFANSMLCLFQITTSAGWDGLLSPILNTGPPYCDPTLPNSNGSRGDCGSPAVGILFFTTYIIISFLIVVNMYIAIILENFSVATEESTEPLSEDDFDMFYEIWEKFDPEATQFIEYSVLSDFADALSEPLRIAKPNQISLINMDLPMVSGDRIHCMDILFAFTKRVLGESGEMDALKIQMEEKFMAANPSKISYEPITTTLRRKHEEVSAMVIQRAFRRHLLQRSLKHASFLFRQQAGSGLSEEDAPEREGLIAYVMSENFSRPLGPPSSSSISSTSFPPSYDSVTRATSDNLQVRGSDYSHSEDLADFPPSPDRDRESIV
Respond with the bare value in µM.

State recorded IC50 with human Nav1.5 sodium channel (Homo sapiens, UniProt Q14524), entry C[C@@H](C[N+](C)(C)C1CCCCC1)OC(=O)c1ccc(C(C)(C)C)cc1.[I-] [Example 46] , no comment. 232

Report IC50 on human Nav1.5 sodium channel (Homo sapiens, UniProt Q14524) for this entry: C[C@@H](C[N+](C)(C)C1CCCCC1)OC(=O)c1ccc(C(C)(C)C)cc1.[Br-] [Example 5] 305

Provide measured IC50 on human Nav1.5 sodium channel (Homo sapiens, UniProt Q14524) for CC(C[N+](C)(C)C1CCCCC1)OC(=O)c1ccc(C(C)(C)C)cc1.[I-] (centres unmarked) [Example 12] please. 134

Report IC50 under test system human Nav1.5 sodium channel (Homo sapiens, UniProt Q14524) for C[C@H](C[N+](C)(C)C1CCCCC1)OC(=O)c1ccc(C(C)(C)C)cc1.[Br-] [Example 48] . 252

Tell me its IC50 on human Nav1.5 sodium channel (Homo sapiens, UniProt Q14524): C[C@H](C[N+](C)(C)C1CCCCC1)OC(=O)c1ccc(C(C)(C)C)cc1.[I-] [Example 47] 255

----------
target: human Nav1.5 sodium channel (Homo sapiens, UniProt Q14524); construct: host or cells: HEK-293; assay: FLIPR membrane potential assay in hNav1.5-HEK293 cells; type: cell-based; conditions: read-out: HEK Nav 1.5 IC50 (μM) (AVG)
Reported log10 of IC50 values for a set of compounds
Remember, log10 of IC50, in µM.

compound="Cc1cc(C)c(C(=O)OC(C)C[N+](C)(C)C2CCC(C)CC2)c(C)c1.[I-] (stereo not drawn) [Example 39]" val=1.95
compound="Cc1cc(C)c(C(=O)OC(C)C[N+](C)(C)C2CCCCC2)c(C)c1.[I-] (stereo not drawn) [Example 1]" val=2.38
compound="CC1CCC([N+](C)(C)CC(C)OC(=O)c2ccc(C(C)(C)C)cc2)CC1.[I-] (stereo not drawn) [Example 38]" val=1.73
compound="Cc1cccc(C)c1C(=O)OC(C)C[N+](C)(C)C1CCCCC1.[I-] (stereo not drawn) [Example 6]" val=2.84
compound="CC(C[N+](C)(C)C1CCCCC1)OC(=O)c1sc2ccccc2c1Cl.[I-] (stereo not drawn) [Example 31]" val=2.20

Complete the entry with log10 of IC50 for CC(C[N+](C)(C)C1CCCCC1)OC(=O)c1ccccc1C(C)C.[I-] (stereo not drawn) [Example 2] 2.27

----------
biological target: human Nav1.5 sodium channel (Homo sapiens, UniProt Q14524); construct: host or cells: HEK-293; assay: FLIPR membrane potential assay in hNav1.5-HEK293 cells; type: cell-based; conditions: human, hNav1.5-HEK293 cells (HEK-293 cells expressing human Nav1.5), pH 7.4; 1.5 mM; read-out: HEK Nav 1.5% inh. @ 1.5 mM
readout: inhibition at 10 min, 1.5 mM (%)
Please reply with the bare figure in % and do not write the unit itself.

Entry Cc1cccc(C)c1C(=O)OC(C)C[N+](C)(C)C1CCCCC1.[I-] (stereo not shown) needs its inhibition at 10 min, 1.5 mM filled in; supply it. 68
